meta.source: PubChem BioAssay AID1159580

Measured normalized growth of individual entries
# ASSAY INFO: chemical genetic growth profiling, strain panel (AID 1159580);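 further: tested at 20 µM; growth read once vehicle control cultures reached saturation at 30 °C; 1 = growth at the plate median or of vehicle wells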
# PARTICULARS: S. cerevisiae deletion strains, growth OD, locus YDL017W, strain CDC7, stronger effect = lower value
The whole screen tested about 5,500 compounds, of which about 2,000 (36%) were called active. Inconclusive results (about 18%) are left out. This is one part of the list.
// no unit string in output, number only

Cc1c(Cc2ccc(F)cc2)c(=O)oc2cc(O)ccc12; 0.983
COc1cc(NC(=S)NNS(=O)(=O)c2ccc(C)cc2)c(OC)cc1Cl; 0.984
O=C1C(=O)N(CN2CCc3c([nH]c4ccccc34)C2C(F)(F)F)c2ccc(F)cc21 (stereo unspecified); 0.983
COc1cc(NC(=S)NC(=O)c2ccccc2)c(OC)cc1Cl; 0.998
O=C(N/C=C/c1ccsc1)Nc1cc(C(F)(F)F)cc(C(F)(F)F)c1; 0.98
Cc1cc(C(=O)Nc2ccc(Cl)cc2)nn1C(C)(C)C; 0.995
O=C(CSc1nnnn1-c1ccccc1)c1ccccc1; 0.962
N#CC(C#N)=C(SCc1c(Cl)cccc1Cl)SCc1c(Cl)cccc1Cl; 0.989
COc1ccc(/C=C2\CSc3ccc(F)cc3C2=O)cc1; 0.966
Nc1ccccc1SCc1c(Cl)cccc1Cl; 0.952

Here's the next entry for you.
Exam item: For the molecule CCOC(=O)CSC(=S)NCc1ccc(C)cc1 , what normalized growth is on record?
Marked response: 0.959

###

# ASSAY INFO: chemical genetic growth profiling, strain panel (AID 1159580)
# PARTICULARS: S. cerevisiae deletion strains, growth OD, locus YJL166W, strain qcr8, stronger effect = lower value
About 2,000 (36%) of roughly 5,500 compounds were called active. Inconclusive results (about 18%) are left out. This is one part of the list.
Entries annotated with measured normalized growth

COc1ccc(OC)c(C(O)C(C)N)c1 (configuration not stated); 0.974 (inactive)
CC(C[N+](C)(C)C)OC(N)=O (configuration not stated); 1.01 (inactive)
C[N+](C)(C)CCOC(N)=O; 0.992 (inactive)

Exam item: Field request: normalized growth | item: CC(C(=O)O)c1cccc(C(=O)c2ccccc2)c1 (configuration not stated)
Marked response: 0.999 (inactive)

Exam item: Tell me the measured normalized growth of COc1cc(NS(=O)(=O)c2ccc(N)cc2)nc(OC)n1 , please.
Marked response: 0.978 (inactive)

Exam item: Which normalized growth value is on record for CC(=O)OCC[N+](C)(C)C ?
Marked response: 1.04 (inactive)

Exam item: Could you tell me which normalized growth is on file for c1cncc(C2CCCCN2)c1 (configuration not stated) ?
Marked response: 0.993 (inactive)

###

# ASSAY INFO: chemical genetic growth profiling, strain panel (AID 1159580)
# PARTICULARS: S. cerevisiae deletion strains, growth OD, locus YLR085C, strain ARP6
Among all 5,500 compounds or so, about 2,000 (36%) were called active. Roughly 18% stayed inconclusive and do not appear here. No stated cut-off is given here; in the data, active means normalized growth mostly below about 0.91 (no sharp cut-off); inconclusive means no clear call, values can overlap the other calls; inactive means mostly above about 0.92. Some of the results follow.
Pick from active, inactive when you respond.

Completed entries (count: 5):
COc1ccc(S(=O)(=O)Nc2ccccc2Oc2ccc(Cl)cc2Cl)cc1OC; inactive
CCOC(=O)COc1nc(-c2cccs2)cc(C(F)(F)F)c1C#N; inactive
Cc1ccc(-c2csc(-c3ccc(Cl)cc3)n2)c(C)c1; active
O=C1c2cccc3c([N+](=O)[O-])ccc(c23)C(=O)N1Cc1ccco1; active
CCOC(=O)c1cc(C)nc(Sc2ccccc2)c1C#N; inactive

Could you now look at the following compound, please?
Exam item: For this compound, state the assay outcome: CC(C)(C)c1ccc(NC(=O)Cc2cc(F)cc(F)c2)cc1
Marked response: active

###

# ASSAY INFO: chemical genetic growth profiling, strain panel (AID 1159580)
# PARTICULARS: S. cerevisiae deletion strains, growth OD, locus YLR027C, strain aat2, stronger effect = lower value
The campaign covered roughly 5,500 compounds. About 2,000 (36%) were called active. About 18% were inconclusive and are not listed. The list shows a part of the results.
Measured normalized growth, listed per entry for reference.
Write the value as a bare number.

CCOC(=O)CCC(=O)O[C@H]1[C@H](O[C@@H]2[C@@H](C)[C@H](O[C@H]3C[C@@](C)(OC)[C@@H](O)[C@H](C)O3)[C@@H](C)C(=O)O[C@H](CC)[C@@](C)(O)[C@H](O)[C@@H](C)C(=O)[C@H](C)C[C@@]2(C)O)O[C@H](C)C[C@@H]1N(C)C; 0.986

Proceed to the following item.
Exam item: Which normalized growth value belongs to CC(=O)O[C@H]1[C@@H]2[C@@H](OC(=O)Cc3ccccc3)[C@@H](C)C[C@]2(OC(C)=O)C(=O)/C(C)=C/[C@H]2[C@H](CC[C@@]13CO3)C2(C)C ?
Marked response: 0.975

###

# ASSAY INFO: chemical genetic growth profiling, strain panel (AID 1159580);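 further: tested at 20 µM; growth read once vehicle control cultures reached saturation at 30 °C; 1 = growth at the plate median or of vehicle wells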
# PARTICULARS: S. cerevisiae deletion strains, growth OD, locus YLR268W, strain sec22
Screen size: about 5,500 compounds; about 2,000 (36%) were called active. About 18% were inconclusive and are not listed. Cut-off read from the data, not from the text of the source: active = normalized growth mostly below about 0.91 (no sharp cut-off); inconclusive = no clear call, values can overlap the other calls; inactive = mostly above about 0.92. This is one part of the list.
// allowed return values: active, inactive

Worked set:
CCC(C)C(OC(C)=O)C(=O)OC1C(O)C2C3(C)C=CC(=O)C(C)(C)C3CC(OC(=O)C(O)C(C)C)C2(C)C23OC2CC(c2ccoc2)C13C (configuration not stated); inactive
C[C@@H]1[C@H]2[C@H](O[C@@H]3O[C@H](CO)[C@@H](O)[C@H](O)[C@H]3O)OC=C(C(=O)O)[C@H]2C[C@@H]1O; inactive
CC(=O)OC(C)(C)[C@@H]1Cc2cc3ccc(=O)oc3cc2O1; inactive
C=C1C([C@]2(C)C(CC(=O)OC)[C@@](C)(COC(C)=O)OC(=O)C[C@@H]2OC(C)=O)[C@@H](OC=O)[C@H](OC(=O)C(O)C(C)CC)[C@@]2(C)[C@H](c3ccoc3)CC(=O)C12O (some centres not stated); inactive
CN(C)c1ccc(C(=C2C=CC(=[N+](C)C)C=C2)c2ccc(N(C)C)cc2)cc1; active

Exam item: What outcome does the record of this test show for COCCc1ccc(OCC(O)CNC(C)C)cc1 (configuration not stated) ?
Marked response: inactive

Exam item: Dear colleague, could you share the recorded outcome for C=C1C([C@]2(C)C(CC(=O)OC)[C@@](C)(COC(C)=O)OC(=O)C[C@@H]2OC(C)=O)[C@@H](OC=O)[C@H](OC(=O)C(OC(C)=O)C(C)CC)[C@@]2(C)[C@H](c3ccoc3)CC(=O)C12O (some centres not stated) when you have a moment?
Marked response: inactive

###

# ASSAY INFO: chemical genetic growth profiling, strain panel (AID 1159580);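 further: tested at 20 µM; growth read once vehicle control cultures reached saturation at 30 °C; 1 = growth at the plate median or of vehicle wells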
# PARTICULARS: S. cerevisiae deletion strains, growth OD, locus YJR066W, strain TOR1 (second series)
In all, about 5,500 compounds went through this assay and about 2,000 (36%) were called active. Roughly 18% stayed inconclusive and do not appear here. No stated cut-off is given here; in the data, active means normalized growth mostly below about 0.91 (no sharp cut-off); inconclusive means no clear call, values can overlap the other calls; inactive means mostly above about 0.92. This is one part of the list.
Pick one: active, inactive

COc1cc(NC(=S)NNS(=O)(=O)c2ccc(C)cc2)c(OC)cc1Cl; inactive
O=c1c(Sc2ccc(Cl)cc2)c(Sc2ccc(Cl)cc2)c1=O; active
Nc1ccccc1SCc1c(Cl)cccc1Cl; inactive

Exam item: Which result was noted for this molecule in the test: Cc1ccc(Sc2c(Sc3ccc(C)cc3)c(=O)c2=O)cc1
Marked response: active

Exam item: What did this assay record as the result for COc1cc(NC(=S)N(C)C)c(OC)cc1Cl ?
Marked response: inactive

Exam item: For O=S(=O)(Nc1cccc(CCc2ccccn2)c1)c1cc(Cl)c(Cl)cc1Cl , what call appears in the results of this test?
Marked response: inactive

###

# ASSAY INFO: chemical genetic growth profiling, strain panel (AID 1159580);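 further: tested at 20 µM; growth read once vehicle control cultures reached saturation at 30 °C; 1 = growth at the plate median or of vehicle wells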
# PARTICULARS: S. cerevisiae deletion strains, growth OD, locus YDL040C, strain nat1, stronger effect = lower value
Hit rate of the full screen: of about 5,500 compounds, about 2,000 (36%) were called active. Inconclusive results (about 18%) are left out. Some of the results follow.
MEASUREMENT KIND: normalized growth
Answer using only a numeral; do not append any unit.

COc1ccc2cc([C@H](C)C(=O)O)ccc2c1; 0.973
COc1cc2c(cc1OC)Cc1cc(OC)c(OC)cc1Cc1cc(OC)c(OC)cc1C2; 1.05
COC1=C(OC)C(=O)C(C/C=C(\C)CC/C=C(\C)CC/C=C(\C)CC/C=C(/C)CC/C=C(\C)CC/C=C(\C)CC/C=C(\C)CC/C=C(\C)CC/C=C(\C)CCC=C(C)C)=C(C)C1=O; 0.983
CC(=O)N[C@@H](CC(C)C)C(=O)O; 0.988
COC1=CC(=O)C[C@@H](C)[C@]12Oc1c(Cl)c(OC)cc(OC)c1C2=O; 0.995

Exam item: If you can, please state the reported normalized growth value of COc1ccc(OC)c(C(O)C(C)N)c1 (stereo unspecified) .
Marked response: 0.996

Exam item: // lookup normalized growth for COc1cc2c(cc1OC)[C@@H]1C(=O)c3ccc(O)c(CC=C(C)C)c3O[C@@H]1CO2
Marked response: 0.975

Exam item: Give its normalized growth value. Item: COc1cc2c(cc1OC)C(=O)OC2
Marked response: 0.985

Exam item: Tell me the measured normalized growth of COc1cc(NC(C)CCCN)c2ncccc2c1 (stereo unspecified) , please.
Marked response: 1

Exam item: Any idea what its normalized growth is? The molecule is CC(C(=O)O)c1ccc(-c2ccccc2)c(F)c1 (stereo unspecified)
Marked response: 0.995

Exam item: Quick one: normalized growth for CC(C[N+](C)(C)C)OC(N)=O (stereo unspecified) ?
Marked response: 1.02

Exam item: Data request, read-out normalized growth, for NCCSSCCN
Marked response: 0.996

Exam item: I'd like to know its normalized growth. The molecule in question is CC1CC2C3CC(F)C4=CC(=O)C=CC4(C)C3(F)C(O)CC2(C)C1(O)C(=O)CO (stereo unspecified)
Marked response: 0.997

Exam item: State the recorded normalized growth for this entry: CC(C)OC(=O)C(C)(C)Oc1ccc(C(=O)c2ccc(Cl)cc2)cc1
Marked response: 0.966

Exam item: Can you look up the measured normalized growth of CC(=O)[C@H]1CCC2C3CCC4=CC(=O)CC[C@]4(C)C3CC[C@@]21C (stereo partly specified) for me?
Marked response: 0.981

Exam item: Which normalized growth reading was recorded for the molecule NCC1CCC(C(=O)O)CC1 (stereo unspecified) ?
Marked response: 0.972

Exam item: Which normalized growth is listed for CN1CCC(=C2c3ccccc3CC(=O)c3sccc32)CC1 ?
Marked response: 0.984

Exam item: Would you kindly share the measured normalized growth for CN1CCC(=C2c3ccccc3CCc3sccc32)CC1 ?
Marked response: 0.98

Exam item: State the recorded normalized growth for this entry: C[C@]12CCC(=O)C=C1CCC1C2CC[C@@]2(C)C1CC[C@@H]2O (stereo partly specified)
Marked response: 0.985

Exam item: I am curious: what normalized growth value has been reported for S=c1nc[nH]c2nc[nH]c12 ?
Marked response: 1.02
